system: MDA-MB-435; experiment: NCI tumour cell line growth inhibition, 48 h
Calls of active or inactive are those of the source. Cut-off read from the data, not from the text of the source: active = GI50 up to about 1.1 µM and inactive = higher.
Can you answer with just one of these options? 1 = active, -1 = inactive

Solved cases below.
1) O=C(CP(=O)(c1ccccc1)c1ccccc1)c1cccc(C(=O)CP(=O)(c2ccccc2)c2ccccc2)c1
-1
2) COc1cc2ncnc(Nc3cccc(Cl)c3)c2cc1OC [TYRPHOSTIN AG-1478]
-1
3) O=c1c2cc([N+](=O)[O-])ccc2n2n1Cc1ccccc1CC2
-1

Prompt: Outcome? `N#Cc1c(Cl)c2ccccc2n2c1nc1ccccc12`
Completion: -1

Prompt: Outcome? `C=C(C(N)=O)c1ccc([N+](=O)[O-])o1`
Completion: -1

Prompt: Outcome? CCOC(=O)N1c2ccccc2C(C)=CC(C)C1C (stereo unspecified)
Completion: -1

Prompt: Outcome? CC(C)CC(NC(=O)C(C)(CI)Cc1ccccc1)C(=O)Nc1ccccc1 (stereo unspecified)
Completion: -1

Prompt: Outcome? `Cc1ccc(S(=O)(=O)OC2CCN(C)CC2)cc1`
Completion: -1

Prompt: Outcome? `COC(=O)NC1(NC(=O)OC)NC(=O)c2cc(OC)c(OC)cc2N1`
Completion: -1

Prompt: Outcome? CC(=O)O[C@H]1C(=O)[C@@]2(C)C(C(OC(=O)c3ccccc3)[C@]3(O)CC(OC(=O)C(O)C(NC(=O)c4ccccc4)c4ccc(F)cc4)C(C)=C1C3(C)C)[C@]1(OC(C)=O)CO[C@@H]1C[C@@H]2O (stereo partly specified)
Completion: 1

Prompt: Outcome? O=C(NCCC1CNc2ccccc21)OCc1ccccc1 (stereo unspecified)
Completion: -1
